# subjectOfTest: Kir3.1/Kir3.4 (Homo sapiens, UniProt P48549+P48544)
# Sequence (P48549 whole entry): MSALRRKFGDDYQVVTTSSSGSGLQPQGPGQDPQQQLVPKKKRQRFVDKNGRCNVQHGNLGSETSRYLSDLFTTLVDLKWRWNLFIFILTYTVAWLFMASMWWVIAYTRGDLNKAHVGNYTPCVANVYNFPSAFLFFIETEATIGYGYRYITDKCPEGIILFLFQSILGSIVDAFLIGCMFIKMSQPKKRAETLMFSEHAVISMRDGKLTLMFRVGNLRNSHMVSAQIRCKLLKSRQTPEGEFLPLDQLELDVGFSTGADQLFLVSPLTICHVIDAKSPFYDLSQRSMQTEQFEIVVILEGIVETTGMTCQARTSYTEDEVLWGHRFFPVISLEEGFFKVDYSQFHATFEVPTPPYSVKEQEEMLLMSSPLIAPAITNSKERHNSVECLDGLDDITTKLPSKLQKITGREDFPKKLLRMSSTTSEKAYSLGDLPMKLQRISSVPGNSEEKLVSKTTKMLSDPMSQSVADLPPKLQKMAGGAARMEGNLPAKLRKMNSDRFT
# Sequence (P48544 whole entry): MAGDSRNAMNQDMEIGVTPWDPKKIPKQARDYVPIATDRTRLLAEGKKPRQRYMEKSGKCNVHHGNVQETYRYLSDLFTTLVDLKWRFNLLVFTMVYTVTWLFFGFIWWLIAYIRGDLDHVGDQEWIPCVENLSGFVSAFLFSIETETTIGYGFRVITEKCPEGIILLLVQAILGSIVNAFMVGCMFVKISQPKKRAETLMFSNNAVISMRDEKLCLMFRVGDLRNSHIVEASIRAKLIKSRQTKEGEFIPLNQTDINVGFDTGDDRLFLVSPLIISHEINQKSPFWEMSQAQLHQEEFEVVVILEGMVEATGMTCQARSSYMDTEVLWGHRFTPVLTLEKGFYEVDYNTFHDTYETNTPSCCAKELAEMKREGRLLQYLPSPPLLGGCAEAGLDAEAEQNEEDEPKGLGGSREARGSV
# testDescription: Activation of human GIRK1/4 expressed in HEK293 cells co-expressing rat mGlu8 by thallium flux assay
# Assay type: cell-based
# conditionSummary: hek293
quantity: EC50

Consider the reported EC50 for these molecules:
Cc1nc(NC(=O)Cn2nnc(-c3ccccc3)n2)n(-c2ccccc2)n1; Not Active
O=C(Cn1nnc(-c2ccccc2)n1)Nc1cc(C2(C(F)(F)F)CC2)nn1C1CCCCC1; Not Active
Cc1cc(NC(=O)Cn2nnc(-c3ccccc3)n2)n(C2CCS(=O)(=O)CC2)n1; Not Active
O=C(Cn1nnc(-c2ccccc2)n1)Nc1ccccn1; Not Active
Cc1nc(-c2ccccc2)c(NC(=O)Cn2nnc(-c3ccccc3)n2)s1; Not Active

Query: Look up EC50 for this molecule: Cc1cc(NC(=O)Cc2ccc(-c3ccccc3)cn2)n(C2CCCCC2)n1
Reply: Not Active

Query: Can you handle CC1(c2cc(NC(=O)Cn3nnc(-c4ccccc4)n3)n(C3CCCCC3)n2)CC1 next?
Reply: Not Active

Query: Can you handle Cc1cc(NC(=O)Cn2nnc(-c3ccccc3)n2)n(C2CCC(C)(C)CC2)n1 next?
Reply: Not Active
